- System: OVCAR-4
- assayComment: NCI tumour cell line growth inhibition, 48 h
Activity calls are given as the source filed them. No stated cut-off is given here; in the data, active = GI50 up to about 1.1 µM and inactive = higher.
readoutKind: GI50

Here's what some known entries look like.
{"compound": "CC(C)=CC(O)C(C(O)CCC1(C)OCCO1)S(=O)(=O)c1ccccc1 (stereo not given)", "GI50": "> 100 µM (inactive)"}
{"compound": "CCOc1cc(C=O)ccc1O [ETHYL VANILLIN]", "GI50": "> 100 µM (inactive)"}
{"compound": "O=C(NNC(=O)c1ccccc1O)c1ccc(O)cc1", "GI50": "91.6 µM (inactive)"}

Reported GI50 for C/C(=N\NC(=O)N/N=C(\C)c1ccccn1)c1ccccn1 : what is it?
42 µM (inactive)

# get_value(readout='GI50', item= CN(C)CCCOC(=O)C(c1ccccc1)C1(O)CCSCC1 (stereo not given) )
> 100 µM (inactive)

Quick one: GI50 of CC(=O)OC1/C(=C/c2ccc([N+](=O)[O-])cc2)C[C@H]2[C@@H]3CC=C4C[C@@H](OC(C)=O)CC[C@]4(C)[C@H]3CC[C@]12C (stereo not given in full) ?
> 96.4 µM (inactive)

Give the measured GI50 of Nc1ccc(-c2nc3cc(F)ccc3s2)cc1 .
> 36.7 µM (inactive)

Could you tell me which GI50 is on file for CC(=O)C1C(=O)C(=O)N(c2ccc(Cl)cc2C)C1=O (stereo not given) ?
> 100 µM (inactive)

Can you look up the measured GI50 of N#C[C@H]1Nc2ccccc2[C@@H](O)C1O (stereo not given in full) for me?
> 100 µM (inactive)

Which GI50 is reported for this compound? CCN(c1n[n+]2c(-c3ccccc3)csc2s1)c1n[n+]2c(-c3ccccc3)csc2s1
35.4 µM (inactive)

====

- System: Hs-578T
- assayComment: NCI tumour cell line growth inhibition, 48 h
Activity calls are given as the source filed them. Rule as the data show it: active = GI50 up to about 1.1 µM and inactive = higher.
Return exactly one item of y for active, n for inactive

Below, 3 compounds whose answers are already recorded.
{"compound": "COc1ccc2cc(C(C)C(=O)N3CCOC3=O)ccc2c1 (configuration not stated)", "targetDesc": "Hs-578T", "category": "n"}
{"compound": "CC(C(=O)O)c1ccc(-c2ccccc2)c(F)c1 (configuration not stated)", "targetDesc": "Hs-578T", "category": "n"}
{"compound": "O=C(NP(=O)(N1CC1)N1CC1)c1cc(I)ccc1I", "targetDesc": "Hs-578T", "category": "n"}

Entry O=C1CCC2(c3ccc(Cl)cc3)Nc3ncncc3N12 (configuration not stated) : call = ?
n

====

- Test system: UO-31
- assayComment: NCI tumour cell line growth inhibition, 48 h
The source made the active and inactive calls. Cut-off read from the data, not from the text of the source: active = GI50 up to about 1.1 µM and inactive = higher. Residues, ends and D or L forms follow the SMILES beside them. *: point of attachment. Boc = CC(C)(C)OC(=O)*
Choose the fitting class; nothing outside active, inactive is accepted.

Observe how each entry below is paired with its result.
{"compound": "COC1O[C@H]2CCN(C(=O)OCc3ccccc3)[C@H]2[C@H]1OCc1ccccc1 (stereo partly specified)", "category": "inactive"}
{"compound": "COc1cc(/C=C\\C(=O)O)ccc1OCc1ccccc1", "category": "inactive"}
{"compound": "CN(C)CCNC(=O)c1cccc2cc3cc(O)ccc3nc12", "category": "active"}
{"compound": "Nc1nc(Cl)cc(NCC2(CO)CC(c3ccccc3)C2)n1 (stereo unspecified)", "category": "inactive"}
{"compound": "CC(NC(=O)C(OC(=O)C(C)NC(=O)OC(C)(C)C)C(C)C)C(=O)OC(C(=O)O)C(C)C (stereo unspecified)", "category": "inactive"}

Next item in the queue.
Write down the call the test reported for this compound. Item: CC(NC(=O)C(NC(=O)OC(C)(C)C)C(C)C)C(=O)N1CCCC1C(=O)NCC(=O)NC(C(=O)NCC(=O)O)C(C)C (stereo unspecified) (Boc-VAPGVG-OH; configuration not given here)
inactive
